# Tested on: a variety of test species
# assay.protocol: Post-emergence herbicidal activity (Example 8b, Table 3)
# Assay type: in vivo
# run.parameters: Zea mays; application post-emergence; rate 1000 g/ha; evaluated after 13 days; scale 0-5
// Herbicidal damage score, ZEAMX lookup, one value per entry
outcome.measure: Herbicidal damage score, ZEAMX

[
  {
    "compound": "CC1=C(Cl)C(=O)N(c2cc(C(C)(F)C(C)(C)C)n(C)n2)C1O (mixture of isomers) [Compound B40]",
    "data.value": 1
  },
  {
    "compound": "CC1=C(Cl)C(=O)N(c2cc(Cl)n(C)n2)C1O (stereo not shown) [Compound B18]",
    "data.value": 5
  },
  {
    "compound": "CC1=C(Cl)C(=O)N(c2cc3n(n2)CC[S+]([O-])C3(C)C)C1O (mixture of isomers) [Compound G12]",
    "data.value": 1
  },
  {
    "compound": "CC1=C(Br)C(=O)N(c2cc3n(n2)CCC3(C)C)C1O (stereo not shown) [Compound M1]",
    "data.value": 4
  },
  {
    "compound": "CC1=C(Cl)C(=O)N(c2cc(C(F)(F)F)n(C(C)C)n2)C1O (stereo not shown) [Compound C4]",
    "data.value": 2
  },
  {
    "compound": "C=CCC(C)(C)c1cc(N2C(=O)C(Cl)=C(C)C2O)nn1C (stereo not shown) [Compound B23]",
    "data.value": 4
  },
  {
    "compound": "CC(C)=Cc1cc(N2C(=O)C(Cl)=C(C)C2O)nn1C (stereo not shown) [Compound B7]",
    "data.value": 2
  },
  {
    "compound": "CC1=C(Cl)C(=O)N(c2cc3n(n2)CCS(=O)(=O)C3(C)C)C1O (stereo not shown) [Compound G11]",
    "data.value": 3
  },
  {
    "compound": "CCn1nc(N2C(=O)C(Cl)=C(C)C2O)cc1C(F)(F)F (stereo not shown) [Compound C1]",
    "data.value": 3
  },
  {
    "compound": "CCCC1=C(Br)C(=O)N(c2nn(C)c(C(C)(C)C)c2C#N)C1OC(=O)CC (stereo not shown) [Compound L3]",
    "data.value": 2
  },
  {
    "compound": "CC(C)=Cc1cc(N2C(=O)C(Cl)=C(C)C2O)nn1C (stereo not shown) [Compound B20]",
    "data.value": 2
  },
  {
    "compound": "CC1=C(Cl)C(=O)N(c2cc(C(F)(F)C(F)(F)F)n(C)n2)C1O (stereo not shown) [Compound B4]",
    "data.value": 3
  },
  {
    "compound": "CC1=C(Cl)C(=O)N(c2nn(C)c(C(C)(C)C)c2Cl)C1O (stereo not shown) [Compound D3]",
    "data.value": 4
  },
  {
    "compound": "CC1=C(Cl)C(=O)N(c2cc(C(F)(F)F)n(C)n2)C1O (stereo not shown) [Compound B3]",
    "data.value": 4
  },
  {
    "compound": "CC1=C(Cl)C(=O)N(c2cc(C#CC(C)C)n(C)n2)C1O (stereo not shown) [Compound B29]",
    "data.value": 0
  },
  {
    "compound": "CC1=C(Cl)C(=O)N(c2cc3n(n2)CCC3C)C1O (mixture of isomers) [Compound G1]",
    "data.value": 5
  },
  {
    "compound": "CC1=C(Cl)C(=O)N(c2cc3n(n2)CCC3(C)C)C1O (stereo not shown) [Compound G2]",
    "data.value": 4
  },
  {
    "compound": "C=CCC(C)(C)c1cc(N2C(=O)C(Cl)=C(C)C2O)nn1C (stereo not shown) [Compound B6]",
    "data.value": 4
  },
  {
    "compound": "CC1=C(Cl)C(=O)N(c2nn(C)c(C(C)(C)C)c2C#N)C1O (stereo not shown) [Compound D1]",
    "data.value": 3
  },
  {
    "compound": "CCn1nc(N2C(=O)C(Cl)=C(C)C2O)c2c1C(C)(C)CC2 (stereo not shown) [Compound E1]",
    "data.value": 4
  },
  {
    "compound": "CC1=C(Cl)C(=O)N(c2cc([S+](C)[O-])n(C)n2)C1O (mixture of isomers) [Compound B46]",
    "data.value": 4
  },
  {
    "compound": "CC1=C(Cl)C(=O)N(c2cc3n(n2)CCC3(C)C)C1O (stereo not shown) [Compound G8]",
    "data.value": 4
  },
  {
    "compound": "CCC(C)c1cc(N2C(=O)C(Cl)=C(C)C2O)nn1C (stereo not shown) [Compound B33]",
    "data.value": 5
  },
  {
    "compound": "CCOC(c1cc(N2C(=O)C(Cl)=C(C)C2O)nn1C)C(C)(C)C (mixture of isomers) [Compound B34]",
    "data.value": 0
  },
  {
    "compound": "C/C=C\\c1cc(N2C(=O)C(Cl)=C(C)C2O)nn1C (stereo not shown) [Compound B43]",
    "data.value": 2
  }
]

###

# Tested on: a variety of test species
# assay.protocol: Pre-emergence herbicidal activity (Example 8a, Table 2)
# Type: in vivo
# Design: key: 0 = no damage to plant, 5 = total damage to plant
# run.parameters: SETFA; application pre-emergence; rate 1000 g/ha; evaluated after 13 days
// Pre-emergence herbicidal activity, damage score SETFA lookup, one value per entry
outcome.measure: Pre-emergence herbicidal activity, damage score SETFA

[
  {
    "molecule": "CCn1nc(N2C(=O)C(Cl)=C(C)C2O)cc1C(F)(F)F (centres unmarked) [Compound C1]",
    "data.value": 4
  },
  {
    "molecule": "CC1=C(Cl)C(=O)N(c2cc(C(F)(F)C(F)(F)F)[nH]n2)C1O (centres unmarked)",
    "data.value": 4
  },
  {
    "molecule": "CCC(C)(CC)c1cc(N2C(=O)C(Cl)=C(C)C2O)n[nH]1 (centres unmarked)",
    "data.value": 5
  },
  {
    "molecule": "CCCC1=C(Br)C(=O)N(c2nn(C)c(C(C)(C)C)c2C#N)C1OC(=O)CC (centres unmarked)",
    "data.value": 3
  },
  {
    "molecule": "CC1=C(Cl)C(=O)N(c2cc(S(C)(=O)=O)n(C)n2)C1O (centres unmarked)",
    "data.value": 5
  },
  {
    "molecule": "CC1=C(Cl)C(=O)N(c2cc(C(F)(F)F)[nH]n2)C1O (centres unmarked)",
    "data.value": 0
  },
  {
    "molecule": "CC1=C(Cl)C(=O)N(c2cc(C(C)C)n(C)n2)C1O (centres unmarked) [Compound B5]",
    "data.value": 4
  },
  {
    "molecule": "CCn1nc(N2C(=O)C(Cl)=C(C)C2O)c2c1C(C)(C)CC2 (centres unmarked) [Compound E2]",
    "data.value": 5
  },
  {
    "molecule": "CC1=C(Cl)C(=O)N(c2cc(C(C)c3ccccc3)n(C)n2)C1O (mixture of isomers)",
    "data.value": 4
  },
  {
    "molecule": "CC1=C(Cl)C(=O)N(c2cc(C(C)(C)C)n(C)n2)C1OC(=O)OCC(C)C (centres unmarked) [Compound F1]",
    "data.value": 4
  },
  {
    "molecule": "CCn1nc(N2C(=O)C(Cl)=C(C)C2O)c2c1C(C)(C)CC2 (centres unmarked) [Compound C3]",
    "data.value": 4
  }
]

###

# Tested on: a variety of test species
# assay.protocol: Pre-emergence herbicidal activity (Example 8a, Table 2)
# Assay type: in vivo
# Design: key: 0 = no damage to plant, 5 = total damage to plant
# run.parameters: SETFA; application pre-emergence; rate 1000 g/ha; evaluated after 13 days
outcome.measure: Pre-emergence herbicidal activity, damage score SETFA

[
  {
    "compound": "CC(C)=CCc1cc(N2C(=O)C(Cl)=C(C)C2O)nn1C (centres unmarked) [Compound B22]",
    "data.value": 0
  },
  {
    "compound": "CC1=C(Cl)C(=O)N(c2cc(C(C)(C)C)n(C)n2)C1OC(=O)OCC(C)C (centres unmarked) [Compound F4]",
    "data.value": 4
  },
  {
    "compound": "CC1=C(Br)C(=O)N(c2cc(C(F)(F)F)n(C)n2)C1O (centres unmarked) [Compound J4]",
    "data.value": 5
  },
  {
    "compound": "CCCC1=C(Br)C(=O)N(c2nn(C)c(C(C)(C)C)c2C#N)C1O (centres unmarked) [Compound L4]",
    "data.value": 4
  },
  {
    "compound": "COC1=C(OC)C(O)N(c2cc(C(C)(C)C)n(C)n2)C1=O (centres unmarked) [Compound T1]",
    "data.value": 4
  }
]
